Where do the numbers come from? From the nanobody polyreactivity screen of Harvey et al. (2022).

# measurement_notes: yeast display, Sf9 membrane polyspecificity reagent, FACS + sequencing; frameworks hold sequencing errors
experimental_endpoint: polyreactivity (PSR sort gate)

Sample records with polyreactivity (PSR sort gate):
Q) Reported polyreactivity (PSR sort gate) for `QVQLVESGGGLVQAGGSLRLSCAASGIIFQPYTMGWYRQAPGKERELVAAISYSGGSTYYADSVKGRFTISRDNAKNTVYLQMNSLKPEDTAVYYCAARRYPYSGTHRGFYYWGQGTQVTVSS` : what is it?
A) high polyreactivity

Q) Reported polyreactivity (PSR sort gate) for `QVQLVESGGGLVHAGGSLSLSCAAYYAMGWYRQAPGKERELVAAIDDCTSTNYADSVKGRFTISRDNAKNTVYLQMNSLKPEDTAVDYCNKLSEVTYYGSKFDYWGQGTQVTVSS` : what is it?
A) low polyreactivity

Q) Reported polyreactivity (PSR sort gate) for `QVQLVESGGGLVQAGGSLRLSCAASGRIFTGNVMGWYRQAPGKERELVAAITYRGGSTYYADSVKGRFTISRDNAKNTVYLQMNSLKPEDTAVYYCAAGYFLGHTYGGDYWGQGTQVTVSS` : what is it?
A) low polyreactivity

Q) Reported polyreactivity (PSR sort gate) for `QVHLVESGGGLVQAGGSLRLSCAASGGIFLENAMGWYRQAPGKERELVAAISYNGGRTYYADSVKGRFTISRDNAKNTVYLQMNSLKPEDTAVYYCNAASPYYDSWGQGTQVTVSS` : what is it?
A) high polyreactivity

Q) Reported polyreactivity (PSR sort gate) for `QVQLVESGGGLVQAGGSLRLSCAASGFIFLFNAMGWYRQAPGNESELVAAIYDDGSTYYADSVKGRFTLSLDNAKNTVYLHMNSVKPEDTAVYYCAAPRRGRWIRGYLGQGTQVTVSS` : what is it?
A) high polyreactivity

Q) Reported polyreactivity (PSR sort gate) for `QVQLVESVGGLLQAGGSLRLSCADSGSTFTTNVMGWYRQAPGKERELVAAISKRGGSTFYADSVKGRFTISRDNAKNTVYRQMNSLKPEDTAVYYCKALRRGVRDPYGYWGQGTQVTVSS` : what is it?
A) high polyreactivity

# input for lookup
Q) Reported polyreactivity (PSR sort gate) for `QVQLVESGGGLVQAGGSLRLSCAASGSTFRYYAMGWYRQAPGKERELVARITSRAGRTYYADSVKGRFTLSRDNAKNTVYLQMNSLKPEDTAVYYCNTRDFSGYVHALSLYDYWGQGTQVTVSS` : what is it?
A) high polyreactivity

###

# measurement_notes: yeast display, Sf9 membrane polyspecificity reagent, FACS + sequencing; frameworks hold sequencing errors
experimental_endpoint: polyreactivity (PSR sort gate)

Sample records with polyreactivity (PSR sort gate):
Q) Reported polyreactivity (PSR sort gate) for `QVQLVESGGGLVQAGGSLRLSCAASGSIFGGSGMGWYRQAPGKERELVAAITSGSSTYYADSVKGRFTISRDNAKNTVYLQMNSLKPEDTAVYYCAARPYPHSAYEGDYWGRGTQVTVSS` : what is it?
A) low polyreactivity

Q) Reported polyreactivity (PSR sort gate) for `QVQLVDSGGGLVQAGGSLRLSCAASGFTFVYNVMGWNIQAPGKERELVAAINAGGGSTYYADSVKGRFTISRDNAKNTVYLQMNSLKPEDTAVYYGNARVRVRVGRNWSSYYYWGQGTQVTVSS` : what is it?
A) high polyreactivity

Q) Reported polyreactivity (PSR sort gate) for `QVQLVESGGGLVQAGGSLRLSCAASGFTFVSNAMVWSRQAPGKERELVADITSDGSTNYADSVKGRFTISRDNAKNTVYLQMNSLKPEDTAVYHCATDQRSNTWVNQFDYWGQGTQVTVSS` : what is it?
A) low polyreactivity

Q) Reported polyreactivity (PSR sort gate) for `QVQLQESGGGLVQVGGSLRLTCAASGTIFIYGFLGWNRQAPGKERELVASINLGGITNYADSVKGRFTISRDNAKNTVYLQMISLKPEDTAVYYCAAYVVTGQNYGYWGQGTQVTVSS` : what is it?
A) low polyreactivity

Q) Reported polyreactivity (PSR sort gate) for `QVQLVESGGGLVQAGGSLRLSCAASGNTFYLYAMGWYRQAPGKEREFVAAITGNGGSTYYADSVKGRFTISRDNAKNTVYLQMNSLKPEDTEVYYCAATFWGYNQYDYWGQGTQVTVSS` : what is it?
A) high polyreactivity

Q) Reported polyreactivity (PSR sort gate) for `QVQLVESGGGLVQAGGSLRLSCAASGGIFSTYTMRWYRQAPGKERELVAAITTGNSTYYADSVKGRFTISRDNAKNTVYLQMNSLKPEDTAVYYCAAFAASRDYYRRLFHDGYDYWGQGTQVTVSS` : what is it?
A) low polyreactivity

Q) Reported polyreactivity (PSR sort gate) for `QVQLVESGGGLVQAGGSLRLSGAASGSTFGWYVMGWYRQAPGKERELVASITGSGGSTYYADSVKGRFTISRDHAKNTVYLQMNSLNPEDTAVYYCAAHTGWYDDWTHDSWGQGTQVTVSS` : what is it?
A) low polyreactivity

Q) Reported polyreactivity (PSR sort gate) for `QVQLVESGGGLVQAGGSLRLSCAASGIIFRLYGMGWYRQAPGKERELVAGINTGGSTYADSVKGRFTISRDNAKNTVYLQMNSLKPEDTAVYYCATGPYLIYDYWGQGTQVTVSS` : what is it?
A) low polyreactivity

Q) Reported polyreactivity (PSR sort gate) for `QVQLVESGGGLVQAGGSLRLSCAASGGIISTNAMGWYRQAPGKERDLVAAISRRGGSTYYADSVKGRFTISRDYAKNSVYLQMNCLKPEDTAVYYCNKYLRLFSYGRGYDYWGQGTQVTVSS` : what is it?
A) high polyreactivity

Q) Reported polyreactivity (PSR sort gate) for `QVQLVESGGGLVQAGGSLRLSCAASGRIFQYNVIGWYRQARWKERELVAAISSGGNTYYADSVKGRFTISRDNAKNTVYLQMNSLKPEDTSFYYCAADHYVPWPNYDYDYWGQGTQETVSS` : what is it?
A) low polyreactivity

Others:
Q) Reported polyreactivity (PSR sort gate) for `QVQLVESGGGLVQAGGSLRLSCAASGSTFRVYAMGWYRQAPGKERELVATISWGGGRTYYADSVKGRFTISRDNAKNTVYLQMNSLKPEDTAVYYCAADQRWTTDQPTAGDYWGQGTQVTVSS` : what is it?
A) low polyreactivity

Q) Reported polyreactivity (PSR sort gate) for `QVQLVESGGGLVQAGGSLRLSCAASGRIFGGNALGWYRQAPGYARALVAAISWIGGTTYYADSVKGRFTISRDNAKNTVYLQMNSLKPEDTAVYYCAAYRYRPHVHRYYRYDYWGQGTQVTVSS` : what is it?
A) high polyreactivity

Q) Reported polyreactivity (PSR sort gate) for `QVQLVESGRGLVQAGGSLRLSCAASGFTFAPNAMGWYRQAPGKDRELVARIDRAGSTYYADSVKGRFTISRDNAKNTVYLQMNSLKPEDTAVYYCATDYHGQPSPPYQSIKVDYWGQGTQVTVSS` : what is it?
A) low polyreactivity

Q) Reported polyreactivity (PSR sort gate) for `QVQLVESGGGLVQAGGSLRLSCAASGSIFVNYAMGWYSQAPGTERELVAAISWRGGITYGVSVKGRFTISRDNAKNTVYLQMNSLKPEDTADYYSNTDGDDFFHVIYDYWAQGTQVTVSS` : what is it?
A) low polyreactivity

Q) Reported polyreactivity (PSR sort gate) for `QVQLVESGGGLVQAGGSLRLSCAASGSILYYYVMGWYRQAPGKERELVAAITSGGSTYYADSVKGRFTISRDNAKYTVYFQMIILKPEDTAVFYCAVGYVLTGVFQARFDYWGQGTQVNVSS` : what is it?
A) high polyreactivity

Q) Reported polyreactivity (PSR sort gate) for `QVQLVESGGGLVQAGGSLRLSCAASGSIFGYNVMGWYRQAPGKERELVAAITYSGGSTYYADSVKGRFTISRDNAKNTVYLQMNSQKQEDTAVYYCAKVTGRRFPAYGYDHWGQGTQVTVSS` : what is it?
A) high polyreactivity

Q) Reported polyreactivity (PSR sort gate) for `QVQLVESGGGLVQAGGSLRLSCAASGITFGDNVKGWYRQAPGKERELVAAISRIGDDTYYADSVKGRFTISRDNAKNTVYLQMNSLKPEDTAVYYCAAEYIYYIWSSYIDWDYYWVQGTQVTVSS` : what is it?
A) low polyreactivity

Q) Reported polyreactivity (PSR sort gate) for `EVQLVESGGGLVQAGGSLRLSCAASGFIFGYNAMGWYRQAPGKERDLVAAISWSGGSTYYADSVKGRYTISRDNAKNTVYLQMNSLKPEDTAVYYCNRGYTAQVFTEFDYWGQGTLVTVSS` : what is it?
A) low polyreactivity

Q) Reported polyreactivity (PSR sort gate) for `QVQLVESGGGLVQAGGSLRLSCAASGRTFLWYAMGWYRQAPGKEREFVAAITSSGGDTYYADSVKGRFTISRDNAKNTVYLQMNSLKPADTAVYYCAARTRKWFDYAIHYYWGQGTQVTVSS` : what is it?
A) low polyreactivity

Q) Reported polyreactivity (PSR sort gate) for `QVQLVESGGGLVQAGGSLRLSCAASGFTFYKNTMGWYRQAHGTERELVAAISSSGSSTYYADSVKGRFTISRDNAKNTVYLQMNSLKPEDTAVYYCAAGRFAYHDDYWGQGTQVTVSS` : what is it?
A) high polyreactivity

Q) Reported polyreactivity (PSR sort gate) for `QVQLVESGGGLVQAGGSLRLSCAASGRIFYYYTMGWYRQAPGKERELVAGISRSGDRTYYADSVKGRFTISRDNAKNTVYLQMNSLKPEDTAVYYCATRWSSARMDYWGLGTQVTVSS` : what is it?
A) high polyreactivity
